FYI, the data here is from patent US20240246937A1.

- subjectOfTest: recombinant IL4I1 (Homo sapiens (Human))
- Sequence (Q96RQ9 22-567): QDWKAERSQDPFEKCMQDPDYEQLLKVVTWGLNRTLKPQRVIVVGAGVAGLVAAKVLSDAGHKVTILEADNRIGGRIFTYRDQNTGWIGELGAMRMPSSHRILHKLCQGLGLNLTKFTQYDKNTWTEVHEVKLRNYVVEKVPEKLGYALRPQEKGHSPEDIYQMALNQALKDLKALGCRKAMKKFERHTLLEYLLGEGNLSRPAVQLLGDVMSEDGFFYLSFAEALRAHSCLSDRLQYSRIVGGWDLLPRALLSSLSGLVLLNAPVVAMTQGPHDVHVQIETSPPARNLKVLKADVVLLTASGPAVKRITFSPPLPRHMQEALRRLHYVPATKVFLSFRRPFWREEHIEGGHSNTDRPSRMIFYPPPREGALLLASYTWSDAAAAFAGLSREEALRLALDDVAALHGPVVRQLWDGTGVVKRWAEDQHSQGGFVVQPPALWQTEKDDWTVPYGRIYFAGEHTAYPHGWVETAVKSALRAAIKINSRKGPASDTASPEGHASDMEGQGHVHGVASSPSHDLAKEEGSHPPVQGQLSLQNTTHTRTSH
- experimentalProtocol: IL4I1 Enzymatic Assay (Amplex Red/HRP coupled fluorescence detection of H2O2)
- Type: biochemical
- conditionSummary: 240 min; recombinant IL4I1, four-hour pre-incubation with compound
readoutKind: EC50 (nM)

{"compound": "O=C1C(=O)N(C2CCCC2)CCN1Cc1cc(-c2ccccc2)on1 [Example 104]", "EC50 / nM": 4}
{"compound": "O=C1C(=O)N(C2CCCC2)CCN1Cc1ccc(N2CCC(F)(F)C2)nn1 [Example 319]", "EC50 / nM": 30}
{"compound": "O=C1C(=O)N(C2C[C@@H]3C[C@@H]3C2)CCN1Cc1ccc(-c2ccccc2)nn1 (stereo partly shown) [Example 284]", "EC50 / nM": 8}
{"compound": "O=c1c(=O)n(C23CC(C2)C3)ccn1Cc1ccc(-n2ccnn2)nc1 [Example 411]", "EC50 / nM": 7}
{"compound": "O=c1c(=O)n(C2CCCC2)ccn1Cc1ncc(-c2ccccc2)cn1 [Example 337]", "EC50 / nM": 15}
{"compound": "O=c1c(=O)n([C@H]2C[C@H]3C[C@H]3C2)ccn1Cc1cnc(-c2ccccc2)c(F)c1 [Example 128]", "EC50 / nM": 2}
{"compound": "O=C1C(=O)N(C23CC(F)(C2)C3)CCN1Cc1ccc(-c2cncs2)nn1 [Example 243]", "EC50 / nM": 30}
{"compound": "O=C1C(=O)N(C23CC(C2)C3)CCN1Cc1cnc(-n2nccn2)cn1 [Example 325]", "EC50 / nM": 33}

[1] O=c1c(=O)n(C23CC(F)(C2)C3)ccn1Cc1ccc(-c2cncs2)nn1 [Example 213]
[2] CC1(n2ccn(Cc3cn(-c4ccccn4)nn3)c(=O)c2=O)CC1 [Example 430]
[3] O=c1c(=O)n([C@H]2C[C@H]3C[C@H]3C2)ccn1Cc1nnc(-c2ccc(F)cc2)s1 [Example 41]
[4] N#CC1CCC(n2ccn(Cc3nnc(-c4ccccc4)s3)c(=O)c2=O)C1 (stereo not shown) [Example 338]
**Query** Order the records by EC50, with each subsequent value no larger than the one before. I'd appreciate it if you listed the labels in the requested order.
**Result** 2, 1, 4, 3
(2: 183 nM, 1: 29 nM, 4: 12 nM, 3: 2 nM)

* * *

- subjectOfTest: recombinant IL4I1 (Homo sapiens (Human))
- experimentalProtocol: IL4I1 Enzymatic Assay (Amplex Red/HRP coupled fluorescence detection of H2O2)
- Type: biochemical
- conditionSummary: 240 min; recombinant IL4I1, four-hour pre-incubation with compound
readoutKind: EC50 (nM)

The cases that follow already have their EC50 on record.
{"compound": "CCCOc1ccc(CN2CCN(C3CCCC3)C(=O)C2=O)nn1 [Example 339]", "subjectOfTest": "recombinant IL4I1 (Homo sapiens (Human))", "EC50 [nM]": 42}
{"compound": "O=C1C(=O)N(C2CCCC2)CCN1Cc1ccc(-c2cccnc2)nn1 [Example 37]", "subjectOfTest": "recombinant IL4I1 (Homo sapiens (Human))", "EC50 [nM]": 18}
{"compound": "O=c1c(=O)n(C2(CF)CC2)ccn1Cc1cc(-c2ccccn2)no1 [Example 225]", "subjectOfTest": "recombinant IL4I1 (Homo sapiens (Human))", "EC50 [nM]": 41}

[a] O=c1c(=O)n(C2CCC2)ccn1Cc1ccc(-n2nccn2)nc1 [Example 409]
[b] O=c1c(=O)n(C23CC(C2)C3)ccn1Cc1ccc(-n2cccn2)cn1 [Example 382]
[c] O=C1C(=O)N(C2CCCC2)CCN1Cc1ncc(-c2cncs2)cn1 [Example 5]
[d] CC1(n2ccn(Cc3cc(-c4ccccc4)on3)c(=O)c2=O)CCC1 [Example 420]
**Query** Order the records by EC50, with each subsequent value no larger than the one before. I'd appreciate it if you listed the labels in the requested order.
**Result** c, b, a, d
(c: 50 nM, b: 25 nM, a: 9 nM, d: 5 nM)

[I] O=C1C(=O)N(c2ccccn2)CCN1Cc1ccc(-c2ccccc2)nn1 [Example 433]
[II] O=C1C(=O)N(C2CC3CC2C3)CCN1Cc1ccc(-c2ccccc2F)nn1 (stereo not drawn) [Example 184]
[III] CC1(N2CCN(Cc3nnc(-c4ccccc4)s3)C(=O)C2=O)COC1 [Example 302]
[IV] O=c1c(=O)n(C23CC(C2)C3)ccn1Cc1cc(-c2ccccn2)no1 [Example 172]
**Query** Order the records by EC50, with each subsequent value no larger than the one before. I'd appreciate it if you listed the labels in the requested order.
**Result** III, I, II, IV
